These measurements were taken from ChEMBL document CHEMBL2046289.

PROCEDURE_SUMMARY: Clearance in Wistar rat at 1 mg/kg, iv and 10 mg/kg, po
Type: ADME, organism-based
RUN_CONDITIONS: in vivo
ENDPOINT: clearance (mL/min/kg)

1 = COc1ccc(C(C)=O)cc1CSc1nc2ccccc2n1CC(=O)O
2 = COc1ccc(C(C)=O)cc1CSc1nc2cc(F)ccc2n1CC(=O)O
Prompt: // compare: 1 vs 2 , metric clearance, want the smaller Provide the label of your selected option as the answer.
Response: 1

* * *

TGT: Prostaglandin D2 receptor 2 (Homo sapiens)
PROCEDURE_SUMMARY: Displacement of [3H]-PGD2 from human CRTh2 receptor expressed in HEK293 cells
Format: cell-based
pIC50: −log10 of the molar value.
ENDPOINT: pIC50

Recorded pIC50, per entry:
SMILES_NOTATION: O=C(O)Cn1c(SCc2ccccc2Cl)nc2ccccc21
ENDPOINT: pIC50
MEASURED_VALUE: 6.43
//
SMILES_NOTATION: COc1ccc(CSc2nc3ccccc3n2CC(=O)O)cc1
ENDPOINT: pIC50
MEASURED_VALUE: 6.68
//
SMILES_NOTATION: O=C(O)Cn1c(SCCOc2ccc(Cl)cc2)nc2ccccc21
ENDPOINT: pIC50
MEASURED_VALUE: 5.82
//
SMILES_NOTATION: O=C(O)Cn1c(SCc2cccc(Cl)c2)nc2ccccc21
ENDPOINT: pIC50
MEASURED_VALUE: 6.73
//
SMILES_NOTATION: O=C(O)Cn1c(SCc2ccccc2Br)nc2ccccc21
ENDPOINT: pIC50
MEASURED_VALUE: 6.24
//
SMILES_NOTATION: O=C(O)Cn1c(SCCNc2ccccc2)nc2ccccc21
ENDPOINT: pIC50
MEASURED_VALUE: 5.11
//
SMILES_NOTATION: CCOC(=O)CCSc1nc2ccccc2n1CC(=O)O
ENDPOINT: pIC50
MEASURED_VALUE: 4.94
//
SMILES_NOTATION: O=C(O)Cn1c(SCCOc2ccccc2)nc2ccccc21
ENDPOINT: pIC50
MEASURED_VALUE: 6.23
//
SMILES_NOTATION: COc1ccc(C(=O)NCc2ccccc2)cc1CSc1nc2cc(F)ccc2n1CC(=O)O
ENDPOINT: pIC50
MEASURED_VALUE: 7.23
//
SMILES_NOTATION: COC(=O)c1cccc(CSc2nc3ccccc3n2CC(=O)O)c1Br
ENDPOINT: pIC50
MEASURED_VALUE: 5.54

a = COc1ccc(Cl)cc1CSc1nc2ccccc2n1CC(=O)O
b = CCCCNC(=O)c1ccc(OC)c(CSc2nc3cc(F)ccc3n2CC(=O)O)c1
Prompt: Could you kindly indicate whether a or b has the higher pIC50 value? Provide the label of your selected option as the answer.
Response: b

I = CCOC(=O)CCCCCSc1nc2ccccc2n1CC(=O)O
II = COc1ccc(C(C)=O)cc1CSc1nc2cc(C(F)(F)F)ccc2n1CC(=O)O
Prompt: Could you kindly indicate whether I or II has the higher pIC50 value? Provide the label of your selected option as the answer.
Response: II
(II: 8.52, I: 6.00)

* * *

TGT: Prostaglandin D2 receptor 2 (Homo sapiens, UniProt Q9Y5Y4)
PROCEDURE_SUMMARY: Displacement of [3H]-PGD2 from human CRTh2 receptor expressed in HEK293 cells
Format: cell-based
ENDPOINT: IC50 (nM)

SMILES_NOTATION: COc1ccc(C(C)=O)cc1CSc1nc2ccccc2n1CC(=O)O
IC50 [nM]: 8
--
SMILES_NOTATION: COc1ccc(C(C)=O)cc1CSc1nc2cc([N+](=O)[O-])ccc2n1CC(=O)O
IC50 [nM]: 2
--
SMILES_NOTATION: O=C(O)Cn1c(SCCOc2cccc3ccccc23)nc2ccccc21
IC50 [nM]: 2000
--
SMILES_NOTATION: COc1ccc(C(C)=O)cc1CSc1nc2c(F)cccc2n1CC(=O)O
IC50 [nM]: 5
--
SMILES_NOTATION: COc1ccc(C(C)=O)cc1CSc1nc2cc(C(C)=O)ccc2n1CC(=O)O
IC50 [nM]: 33
--
SMILES_NOTATION: COc1ccc(C(=O)c2ccccc2)cc1CSc1nc2cc(F)ccc2n1CC(=O)O
IC50 [nM]: 1.7
--
SMILES_NOTATION: O=C(O)Cn1c(SCCCc2ccccc2)nc2ccccc21
IC50 [nM]: 475
--
SMILES_NOTATION: COC(=O)c1ccc(CSc2nc3ccccc3n2CC(=O)O)cc1
IC50 [nM]: 10600
--
SMILES_NOTATION: CCCCOc1ccc(C(C)=O)cc1CSc1nc2cc(F)ccc2n1CC(=O)O
IC50 [nM]: 9

a = COC(=O)c1ccc(OC)c(CSc2nc3ccccc3n2CC(=O)O)c1
b = COC(=O)c1cc(Br)cc(CSc2nc3ccccc3n2CC(=O)O)c1
Prompt: // compare: a vs b , metric IC50, want the smaller Provide the label of your selected option as the answer.
Response: a
(a: 29 nM, b: 330 nM)

* * *

TGT: Prostaglandin D2 receptor 2 (Homo sapiens)
Sequence (Q9Y5Y4 whole entry): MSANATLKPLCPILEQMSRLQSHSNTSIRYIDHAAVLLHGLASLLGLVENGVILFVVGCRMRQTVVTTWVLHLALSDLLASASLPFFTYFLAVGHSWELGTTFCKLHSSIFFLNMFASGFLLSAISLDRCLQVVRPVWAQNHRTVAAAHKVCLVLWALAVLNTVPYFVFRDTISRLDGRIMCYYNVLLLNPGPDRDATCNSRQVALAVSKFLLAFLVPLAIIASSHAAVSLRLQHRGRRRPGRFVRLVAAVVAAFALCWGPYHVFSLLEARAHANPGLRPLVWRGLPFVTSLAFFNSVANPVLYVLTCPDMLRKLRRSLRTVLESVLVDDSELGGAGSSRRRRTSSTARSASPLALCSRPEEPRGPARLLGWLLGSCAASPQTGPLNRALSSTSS
PROCEDURE_SUMMARY: Displacement of [3H]-PGD2 from human CRTh2 receptor expressed in HEK293 cells in presence of 0.5% human serum albumin
Type: cell-based
ENDPOINT: IC50 (nM)

A = CCCCNC(=O)c1ccc(OC)c(CSc2nc3cc(F)ccc3n2CC(=O)O)c1
B = COc1ccc(C(C)=O)cc1CSc1nc2ccccc2n1CC(=O)O
C = COc1ccc(C(C)=O)cc1CSc1nc2cc(F)ccc2n1CC(=O)O
D = COc1ccc(C(=O)N2CCc3ccccc32)cc1CSc1nc2cc(F)ccc2n1CC(=O)O
Prompt: Output the entries ranked by IC50 from maximum down to minimum. In your reply, arrange the labels in the requested order.
Response: A, C, D, B

* * *

PROCEDURE_SUMMARY: Lipophilicity, log D of the compound at pH 7.4
Type: physicochemical
RUN_CONDITIONS: buffer
ENDPOINT: logD

a = COc1ccc(C(C)=O)cc1CSc1nc2cc(F)ccc2n1CC(=O)O
b = CCCCNC(=O)c1ccc(OC)c(CSc2nc3cc(F)ccc3n2CC(=O)O)c1
Prompt: // compare: a vs b , metric logD, want the smaller Provide the label of your selected option as the answer.
Response: a
(a: -0.8, b: 0.1)

A = COc1ccc(C(C)=O)cc1CSc1nc2ccccc2n1CC(=O)O
B = COc1ccc(C(=O)N2CCc3ccccc32)cc1CSc1nc2cc(F)ccc2n1CC(=O)O
Prompt: // compare: A vs B , metric logD, want the smaller Provide the label of your selected option as the answer.
Response: A
(A: -1.1, B: 0.3)

* * *

PROCEDURE_SUMMARY: Solubility of the compound in Tris buffer at pH 9
Format: physicochemical
ENDPOINT: solubility (µg/mL)

SMILES_NOTATION: COc1ccc(C(=O)N2CCc3ccccc32)cc1CSc1nc2cc(F)ccc2n1CC(=O)O
MEASURED_VALUE: 789
//
SMILES_NOTATION: COc1ccc(C(C)=O)cc1CSc1nc2cc(F)ccc2n1CC(=O)O
MEASURED_VALUE: 583
//
SMILES_NOTATION: COc1ccc(C(C)=O)cc1CSc1nc2ccccc2n1CC(=O)O
MEASURED_VALUE: 583

* * *

PROCEDURE_SUMMARY: Intrinsic clearance in human liver microsomes assessed per mg protein
Assay type: ADME, Microsome
RUN_CONDITIONS: read-out: CLH
ENDPOINT: microsomal CLint (µL/min/mg)

P = CCCCNC(=O)c1ccc(OC)c(CSc2nc3cc(F)ccc3n2CC(=O)O)c1
Q = COc1ccc(C(C)=O)cc1CSc1nc2cc(F)ccc2n1CC(=O)O
R = COc1ccc(C(=O)N2CCc3ccccc32)cc1CSc1nc2cc(F)ccc2n1CC(=O)O
Prompt: Output the entries ranked by microsomal CLint from maximum down to minimum. In your reply, arrange the labels in the requested order.
Response: Q, P, R
(Q: 13 µL/min/mg, P: 7 µL/min/mg, R: 2 µL/min/mg)
